We begin with a simple list: items and their reported Percent Effect.
EXPERIMENTAL TARGET: Tyrosyl-tRNA synthetase, putative (Trypanosoma cruzi (strain CL Brener)) (UniProt Q4DSP6)
Sequence (Q4DSP6 as listed by the source): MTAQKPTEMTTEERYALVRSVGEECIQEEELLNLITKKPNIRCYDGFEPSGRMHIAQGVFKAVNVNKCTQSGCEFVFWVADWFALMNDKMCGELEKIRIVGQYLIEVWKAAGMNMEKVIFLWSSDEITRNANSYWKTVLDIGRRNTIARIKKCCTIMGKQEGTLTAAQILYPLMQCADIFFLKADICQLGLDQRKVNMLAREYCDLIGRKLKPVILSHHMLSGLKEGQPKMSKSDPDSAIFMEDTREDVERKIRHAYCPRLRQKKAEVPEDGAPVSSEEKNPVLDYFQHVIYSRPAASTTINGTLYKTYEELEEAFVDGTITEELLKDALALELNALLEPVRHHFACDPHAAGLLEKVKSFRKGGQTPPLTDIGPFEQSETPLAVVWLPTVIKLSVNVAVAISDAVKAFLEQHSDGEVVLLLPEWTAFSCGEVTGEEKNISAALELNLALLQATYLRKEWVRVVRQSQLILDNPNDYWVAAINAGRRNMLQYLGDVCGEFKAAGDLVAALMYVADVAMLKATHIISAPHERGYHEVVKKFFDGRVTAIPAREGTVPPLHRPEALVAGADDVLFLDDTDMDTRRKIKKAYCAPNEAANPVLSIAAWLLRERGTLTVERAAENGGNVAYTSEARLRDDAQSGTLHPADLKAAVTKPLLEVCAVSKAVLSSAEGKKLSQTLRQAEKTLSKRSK
PROTOCOL SUMMARY: Trypanosoma cruzi tyrosyl tRNA synthetase (TcYRS) SOP
Type: functional
Design: scale not given: direction of the effect not stated beside the values
EXPERIMENTAL CONDITIONS: 30 µM
Report the figure in % without appending any unit label.

COc1cccc(C(=O)N2CCc3ncnc(C)c3CC2)c1 : 11.1
Cc1nc(C)n(C2CCCN(C(=O)c3sccc3C3CC3)C2)n1 (stereo not given) : -8.86
COc1cccc(C(=O)N2CCCC(C(=O)CCc3ccccc3)C2)c1 (stereo not given) : 7.5
OC1CCN(Cc2cc3c(cc2Br)OCCO3)CC1 : 2.56
Cc1noc(C2CCCN(C(=O)c3ccc(Br)o3)C2)n1 (stereo not given) : 21.2
O=C(CCc1cccs1)N1CCCCC1Cn1cccn1 (stereo not given) : 21.2
c1csc(-c2noc(CCCN3CCCC3Cn3cccn3)n2)c1 (stereo not given) : 1.24
CNC(=O)C(NC(=O)c1nccn2ccnc12)c1ccc(F)c(F)c1 (stereo not given) : 15.8
Cc1noc(C(C)N2CCN(CCC(=O)N3CCCCC3)CC2)n1 (stereo not given) : 15.6
CNC(=O)c1ccc(C2CN(C(=O)c3cncs3)CCO2)nc1 (stereo not given) : 16.9

Task item: Item under review: `Cc1ccc(C)c(NC(=O)c2n[nH]c(-n3cnnc3)n2)c1` . Reported Percent Effect?
Reply: 10.3

Task item: Moving on to Cn1cc(N2CCCC(NCc3cccc4c3OCCCO4)C2)cn1 (stereo not given)
Reply: 23.5

Task item: Likewise for `c1cnc(N2C[C@H]3CCN(c4cccnc4)C[C@H]3C2)nc1` ?
Reply: 13.4

Task item: One more compound: `Cc1cnn(CCNCc2ccc(C#N)cc2F)c1`
Reply: 13.4

Task item: Repeat for the following compound: `CCn1cnnc1C1CCN(C(=O)c2cc3c(s2)CCC3)CC1`
Reply: 21.5

###

EXPERIMENTAL TARGET: Arginase-2, mitochondrial (Homo sapiens)
PROTOCOL SUMMARY: in vitro enzyme assay to detect the production of urea directly proportional to the activity of Arginase II; also: in the data most compounds retested in dose-response had high values
Format: functional
Design: scale not given: direction of the effect not stated beside the values
EXPERIMENTAL CONDITIONS: 33.3 µM
Attribute: Percent Effect
# value in %; strip the unit string

CCc1cc(NC2CCN(S(C)(=O)=O)CC2)n2nc(C)c(C)c2n1 : -2.21
Cc1ncccc1OC1(C(=O)NCCCN2CCOCC2)CCNCC1 : 1.43
O=C(NCCc1ccncc1)C1CCN(Cc2ccco2)CC1 : -2.6
COCC(=O)N1Cc2cn(C)nc2C(COc2cccnc2)C1 (stereo not drawn) : 7.1
c1cnnc(N2CCCC(NCc3nc(C4CC4)no3)C2)c1 (stereo not drawn) : 23.4

Moving on to another molecule below.
Task item: Looking for the measured Percent Effect of CCn1cc(NC(=O)NCC2(N3CCOCC3)CCSC2)cn1 (stereo not drawn) , can you help?
Reply: 13.8

###

EXPERIMENTAL TARGET: Chromo domain-containing protein 1 (Saccharomyces cerevisiae (strain ATCC 204508 / S288c) (Baker's yeast))
PROTOCOL SUMMARY: ScCHD-1 Enzyme Inhibition Assay; also: in the data most compounds retested in dose-response had high values
Type: functional
Parameters: scale not given: direction of the effect not stated beside the values
EXPERIMENTAL CONDITIONS: 30 µM
# Percent Effect listing for each entry below
Value expressed in %; do not type the unit.

COc1ncccc1C(=O)Nc1nc2c(s1)CN(S(=O)(=O)C1CC1)CC2 : 102
Cc1ncsc1C(=O)NC1CCN(CC(=O)NCc2ccccc2)CC1 : -2.75

Please look at the following molecule next.
Task item: What value of Percent Effect has been recorded for this entry: Cc1cnn(CC2CN(Cc3nc(N)c4ccccc4n3)CCO2)c1 (stereo not drawn)
Reply: -20.4

Every entry's value here was drawn from ChEMBL document CHEMBL3988442.
